Measurement protocol: Plasma pharmacokinetics after a single intraperitoneal dose
Type: in vivo, male CD1 mice
Details: male, CD1, mouse, plasma, intraperitoneal, 10 mg/kg, 10 mg/kg IP, 2 hr; read-out: Plasma Concentration, Mean
Experimental readout: concentration at 2 hr (ng/mL)
// return numeric value only (unit: ng/mL, not printed)

Q: Please give the measured concentration at 2 hr for this molecule: `COc1ccc(Cn2ccc3ccc(C(=O)NS(C)(=O)=O)cc32)cc1`
A: 47900

###

Measurement protocol: Plasma pharmacokinetics after a single intraperitoneal dose
Type: in vivo, male CD1 mice
Details: male, CD1, mouse; 10 mg/kg IP, plasma
Experimental readout: AUC(0-t) (µg·h/mL)
Record the value in µg·h/mL, omitting the unit from your answer.

Q: Given `COc1ccc(Cn2ccc3ccc(C(=O)NS(C)(=O)=O)cc32)cc1` , state its recorded AUC(0-t).
A: 558
